Experimental Details: Half life po dosed human receiving 1000 mg cumulative dose and reporting drug-associated vomiting and/or nausea on day 3 at 200 mg daily for 3 days followed by weekly dose of 200 mg for 6 months
Type: ADME, organism-based
Condition Description: in vivo

{"Molecule": "COc1cc(C)c2c(Oc3cccc(C(F)(F)F)c3)c(OC)cc(NC(C)CCCN)c2n1 (stereo unspecified) [TAFENOQUINE]", "half-life [days]": 9.8}

----------
Experimental Details: Apparent clearance with respect to the bioavailability po dosed human receiving 1000 mg cumulative dose and reporting drug-associated depression on day 24 at 200 mg daily for 3 days followed by weekly dose of 200 mg for 6 months
Type: ADME, organism-based
Condition Description: in vivo
Parameter: CL/F (mL/min/kg)

{"Molecule": "COc1cc(C)c2c(Oc3cccc(C(F)(F)F)c3)c(OC)cc(NC(C)CCCN)c2n1 (stereo unspecified)", "Parameter": "CL/F", "Reading Unit": "mL/min/kg", "Readout Value": 1.02}

----------
Experimental Details: Clast in po dosed human receiving 1000 mg cumulative dose and reporting drug-associated abdominal pain on day 20 at 200 mg daily for 3 days followed by weekly dose of 200 mg for 6 months
Assay type: ADME, organism-based, Abdomen
Condition Description: in vivo, read-out: Clast

{"Compound": "COc1cc(C)c2c(Oc3cccc(C(F)(F)F)c3)c(OC)cc(NC(C)CCCN)c2n1 (stereo unspecified)", "concentration at 72 h": "253 ng/mL"}

----------
Experimental Details: Trough concentration in po dosed human at 200 mg daily for 3 days followed by weekly dose of 200 mg for 6 months after 16 weeks
Type: ADME, organism-based
Condition Description: in vivo, read-out: Cmin

{"Compound": "COc1cc(C)c2c(Oc3cccc(C(F)(F)F)c3)c(OC)cc(NC(C)CCCN)c2n1 (stereo unspecified)", "Reading Unit": "ng/mL", "concentration at 2688 h": 221}

----------
Experimental Details: Apparent clearance with respect to the bioavailability po dosed human receiving 1000 mg cumulative dose and reporting drug-associated abdominal pain on day 20 at 200 mg daily for 3 days followed by weekly dose of 200 mg for 6 months
Assay type: ADME, organism-based, Abdomen
Condition Description: in vivo

{"Compound": "COc1cc(C)c2c(Oc3cccc(C(F)(F)F)c3)c(OC)cc(NC(C)CCCN)c2n1 (stereo unspecified)", "CL/F / mL/min/kg": 0.883}

----------
Experimental Details: Clast in po dosed human receiving 600 mg cumulative dose and reporting drug-associated vomiting and/or nausea reported on day 3 at 200 mg daily for 3 days followed by weekly dose of 200 mg for 6 months
Format: ADME, organism-based
Condition Description: in vivo, read-out: Clast

{"Molecule": "COc1cc(C)c2c(Oc3cccc(C(F)(F)F)c3)c(OC)cc(NC(C)CCCN)c2n1 (stereo unspecified)", "concentration at 72 h [ng/mL]": 315}

----------
Experimental Details: Apparent clearance with respect to the bioavailability po dosed human receiving 800 mg cumulative dose and reporting drug-associated with hyperesthesia on day 12 at 200 mg daily for 3 days followed by weekly dose of 200 mg for 6 months
Assay type: ADME, organism-based
Condition Description: in vivo

{"Compound": "COc1cc(C)c2c(Oc3cccc(C(F)(F)F)c3)c(OC)cc(NC(C)CCCN)c2n1 (stereo unspecified) [TAFENOQUINE]", "CL/F (mL/min/kg)": 0.767}
